The origin of these recorded values is ChEMBL document CHEMBL3804799.

- TEST DETAILS: Half life in Sprague-Dawley rat at 5 mg/kg, iv by LC-MS/MS analysis
- Type: ADME, organism-based
- ASSAY CONDITIONS: in vivo
METRIC NAME: half-life

{"SMILES CODE": "O=c1ccc(OCCCN2CCCCC2)nn1-c1ccc(Cl)c(Cl)c1", "METRIC NAME": "half-life", "MEASUREMENT": "1.39 h"}

###

- TEST DETAILS: Acute toxicity in po dosed Kun Ming mouse assessed as mortality after 24 hrs
- Format: organism-based
- ASSAY CONDITIONS: in vivo
Quick reference for LD50 at 24 h among some compounds

{"SMILES CODE": "O=c1ccc(OCCCN2CCCCC2)nn1-c1ccc(Cl)c(Cl)c1", "LD50 at 24 h": "> 2000 mg/kg"}
{"SMILES CODE": "O=c1ccc(OCCCN2CCCCC2)nn1-c1ccc(F)c(Cl)c1", "LD50 at 24 h": "900 mg/kg"}
{"SMILES CODE": "CC1CCN(CCCOc2ccc(=O)n(-c3ccc(Cl)cc3)n2)CC1", "LD50 at 24 h": "717 mg/kg"}
{"SMILES CODE": "CC1CCN(CCCOc2ccc(=O)n(-c3ccc(F)c(Cl)c3)n2)CC1", "LD50 at 24 h": "1530 mg/kg"}
{"SMILES CODE": "CC1CCN(CCCOc2ccc(=O)n(-c3ccc(F)c(F)c3)n2)CC1", "LD50 at 24 h": "1300 mg/kg"}
{"SMILES CODE": "O=c1ccc(OCCCN2CCCCC2)nn1-c1ccc(Cl)cc1", "LD50 at 24 h": "754 mg/kg"}
{"SMILES CODE": "O=c1ccc(OCCCN2CCCCC2)nn1-c1ccc(F)c(F)c1", "LD50 at 24 h": "780 mg/kg"}
{"SMILES CODE": "CC1CCN(CCCOc2ccc(=O)n(-c3ccc(Cl)c(Cl)c3)n2)CC1", "LD50 at 24 h": "575 mg/kg"}

###

- TEST DETAILS: AUC (0 to last) in Sprague-Dawley rat at 80 mg/kg, po administered through gavage by LC-MS/MS analysis
- Type: ADME, organism-based
- Parameters: dose 80 mg/kg, time 0 - last, route oral
- ASSAY CONDITIONS: in vivo

{"SMILES CODE": "O=c1ccc(OCCCN2CCCCC2)nn1-c1ccc(Cl)c(Cl)c1", "MEASUREMENT UNITS": "ng·h/mL", "AUC(0-t)": 11700}

###

- TEST DETAILS: Oral bioavailability in Sprague-Dawley rat at 80 mg/kg administered through gavage by LC-MS/MS analysis
- Assay type: ADME, organism-based
- ASSAY CONDITIONS: in vivo
METRIC NAME: bioavailability (%)

{"SMILES CODE": "O=c1ccc(OCCCN2CCCCC2)nn1-c1ccc(Cl)c(Cl)c1", "METRIC NAME": "bioavailability", "MEASUREMENT": 87.5}

###

- TEST DETAILS: Half life in Sprague-Dawley rat at 80 mg/kg, po administered through gavage by LC-MS/MS analysis
- Format: ADME, organism-based
- ASSAY CONDITIONS: in vivo

{"SMILES CODE": "O=c1ccc(OCCCN2CCCCC2)nn1-c1ccc(Cl)c(Cl)c1", "MEASUREMENT UNITS": "h", "half-life": 2.88}
